- Test system: BT-549 breast
- method summary: NCI tumour cell line growth inhibition, 48 h
Recorded TGI, one value per entry.

Below, each entry is followed by its recorded TGI result.
O=C(O)CCSC(=S)Nc1ccc([N+](=O)[O-])cc1 | > 100 µM
CCOC(=O)c1ccc(N=c2oc3ccc(OC)cc3cc2-c2nc3ccccc3[nH]2)cc1 | > 100 µM

Next:
Which measured TGI belongs to CCOC(=O)N1C=CC(=C2C(=C3C=CN(C(=O)OCC)C=C3)C(=C3C=CN(C(=O)OCC)C=C3)C2=C2C=CN(C(=O)OCC)C=C2)C=C1 , tested on BT-549 breast?
> 100 µM
